- assayed_system: Muscarinic acetylcholine receptor M1 (Rattus norvegicus) (UniProt P08482)
- Sequence (P08482 whole entry, looked up): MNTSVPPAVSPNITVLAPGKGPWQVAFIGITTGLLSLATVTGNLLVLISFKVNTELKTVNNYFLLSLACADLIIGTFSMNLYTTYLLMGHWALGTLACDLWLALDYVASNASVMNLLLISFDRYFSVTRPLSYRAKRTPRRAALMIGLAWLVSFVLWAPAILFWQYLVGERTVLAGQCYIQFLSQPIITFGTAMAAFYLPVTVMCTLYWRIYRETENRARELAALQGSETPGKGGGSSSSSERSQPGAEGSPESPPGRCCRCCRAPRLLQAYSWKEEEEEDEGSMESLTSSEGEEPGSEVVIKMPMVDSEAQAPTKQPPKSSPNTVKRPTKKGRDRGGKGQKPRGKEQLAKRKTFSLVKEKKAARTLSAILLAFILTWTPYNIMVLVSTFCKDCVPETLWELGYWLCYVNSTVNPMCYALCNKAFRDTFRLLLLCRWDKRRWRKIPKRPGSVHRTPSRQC
- assay_explanation: rat M1 muscarinic receptor agonists, confirmation, CHO-M1 cells, Fluo-4 calcium, duplicate retest (AID 1488);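 also: an EC20 dose of acetylcholine follows compound addition during the same imaging run; raw fluorescence intensity difference in instrument units with no normalization to controls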
- condition: Fluo-4 calcium fluorescence, agonist mode, at 10 µM, actives lie on both sides
Hit rate of the full screen: of about 1,700 compounds, about 310 (18%) were called active. Inconclusive results (about 25%) are left out.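 The calls were made as follows: active = fluorescence change differs from the solvent-only DMSO control mean at a set confidence level in both duplicate runs; inconclusive = differs from solvent-only control mean in just one of two runs; inactive = the rest.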 This excerpt belongs to a sample that is enriched for actives.
Form entry, call: pick from active, inactive

Use the examples below as a reference point.
COC(=O)c1ccc(CSc2nc3ccccc3c(=O)n2-c2cccc(OC)c2)o1 | inactive
Cc1ccc(S(=O)(=O)Nc2ccc3ncccc3c2)cc1 | inactive
N#CC1=C(N)Oc2c(sc3ccccc23)C1c1ccco1 (stereo unspecified) | active
O=C(CSc1nc2ccccc2o1)N1CCN(c2ccc(Cl)cc2)CC1 | active
CCOc1ccc(NC(=O)N2CC=C(n3c(=O)[nH]c4ccccc43)CC2)cc1 | inactive

Consider now this further compound.
Could you check what this test reported for O=C(Cn1cc(C(=O)c2cccs2)c2ccccc21)NCc1cccs1 ? inactive
